- Test system: OVCAR-8 ovarian
- assay: NCI tumour cell line growth inhibition, 48 h; in the data active = GI50 below about 0.43 µM; inactive = the rest
The reply should name one outcome from active, inactive

| smiles-input | qualitative-label |
| --- | --- |
| c1ccc([CH2][Sn]([CH2]c2ccccc2)([O]c2cccc3cccnc23)[O]c2cccc3cccnc23)cc1 | inactive |
| Nc1c(C(=O)c2ccc(-c3cccnc3)cc2)cnn1-c1ccc(F)cc1 | inactive |
| CSc1ccc(-c2ccccc(=O)c2O)cc1 | active |
| Cc1ccc(Cl)cc1Nc1nc(C(F)(F)F)ccc1C(=O)N/N=C/c1cccnc1 | inactive |

Lookup: Entry C[C@]12CCc3nc(Nc4cccc(O)c4)sc3C1=CC[C@@H]1[C@@H]2CC[C@]2(C)/C(=N\NC(N)=S)CC[C@@H]12 : call = ?
Found: inactive
